Test Method Notes: qHTS of pediatric cancer cell lines to identify multiple opportunities for drug repurposing: Primary screen for TC32 cells (AID 1347089); further: nearly all actives have a fitted effect of over 60% in size; further: potency means the concentration at half of the fitted maximal effect
Applied Conditions: TC32 Ewing sarcoma viability, CellTiter-Glo luminescence, 48 h; series mostly up to 45.8 µM
Results filed as inconclusive are left out. The source made the active and inactive calls. The call rests on the fitted dose curve; in most records, active means well fitted cell-killing curve with a large enough effect; inconclusive means small, poorly fitted or top-dose-only effect; inactive means flat fitted curve, though single readings scatter.
Property Measured: Potency

Use these answered entries as a reference point.
[
  {
    "Compound": "O=C(O)c1ccc2c(c1)nc(Nc1cccc(Cl)c1)c1ccncc12",
    "Property Measured": "Potency",
    "Value Reported": "inactive"
  },
  {
    "Compound": "Clc1cccc(-n2nnnc2NCc2ccccc2Oc2ccccn2)c1Cl",
    "Property Measured": "Potency",
    "Value Reported": "inactive"
  },
  {
    "Compound": "CS(=O)(=O)c1ccc(-c2cnc(N)c(C(=O)Nc3ccccc3)n2)cc1",
    "Property Measured": "Potency",
    "Value Reported": "inactive"
  },
  {
    "Compound": "CN(C)c1nc(Cc2ccc(NC(=O)c3ccc4ccccc4c3)cc2)nc(Cl)c1CC(=O)O",
    "Property Measured": "Potency",
    "Value Reported": "inactive"
  },
  {
    "Compound": "Cc1ccc(C(=O)Nc2cccc(C(F)(F)F)c2)cc1-c1ccc2nc(NCCN3CCOCC3)ncc2c1",
    "Property Measured": "Potency",
    "Value Reported": "18.6 µM (active)"
  },
  {
    "Compound": "COc1ccc2c(OCc3nnc4ccc(-c5ccccc5)nn34)ccnc2c1",
    "Property Measured": "Potency",
    "Value Reported": "inactive"
  }
]

*Q* Value lookup for Potency; key = CC(C)(C)OC(=O)Nc1ccc(-c2cc(C(=O)NCCCCCCC(=O)NO)no2)cc1
*A* 9.3 µM (active)

*Q* Bench note: what Potency did Nc1nc(Nc2ccc(S(N)(=O)=O)cc2)nn1C(=O)c1c(F)cccc1F show?
*A* 14.7 µM (active)

*Q* Query: Potency; subject: COc1cc2c(Oc3ccc(-c4cnc(Nc5ccc(F)cc5)n(C)c4=O)cc3F)ccnc2cc1OCCCN1CCOCC1
*A* 11.7 µM (active)

*Q* I have this compound here, COc1ccc2c(c1)CC[C@@H](CN(C)CC(=O)O)[C@H]2c1ccccc1 , and I need its recorded Potency.
*A* 3.7 µM (active)

*Q* Look at this compound and give its reported Potency. CCCCN1CCC(CNC(=O)c2c3n(c4ccccc24)CCCO3)CC1
*A* inactive

*Q* So what does the record say about Potency for CC(O)C1C(=O)N2C(C(=O)O)=C(SC3CNC(C(=O)N(C)C)C3)C(C)C12 (centres undefined) ?
*A* inactive
